experiment: In vivo PK after single p.o. and i.v. dosing in CD-1 mice; parameters: species or system female CD-1 mice; conditions: female, mouse, plasma; oral 1.5 mg/kg, CD-1 mice, HCl/Solutol HS15/citrate pH 3 formulation; read-out: t1/2 (oral) (converted)
READOUT_KIND: half-life

Exercise: Query half-life for C[C@H]1Cc2c([nH]c3cc(Cl)c(F)cc23)[C@@]2(N1)C(=O)Nc1ccc(Cl)cc12 [(+)-7 (KAE609)]
Key: 8.7 h

* * *

system: P. berghei GFP ANKA PbGFPCON; assay: In vitro (ex vivo) P. berghei maturation assay; format: cell-based, Plasmodium berghei; conditions: Plasmodium berghei; 16 h + 8 h incubation; read-out: IC50 (mean ± SD) for P. berghei GFP ANKA PbGFPCON (n = 3)
READOUT_KIND: IC50 (nM)
Write the number in nM without appending the unit.

Exercise: Query IC50 for C[C@H]1Cc2c([nH]c3cc(Cl)c(F)cc23)[C@@]2(N1)C(=O)Nc1ccc(Cl)cc12 [(+)-7 (KAE609)]
Key: 26

* * *

experiment: In vivo PK after single p.o. and i.v. dosing in CD-1 mice; design: species or system female CD-1 mice; details: single oral dose 25 mg/kg, CD-1 mice
READOUT_KIND: AUC0–24 (ng·h/mL)
Write the number in ng·h/mL without appending the unit.

COMPOUND	VALUE_UNITS	AUC0–24
C[C@H]1Cc2c([nH]c3cc(F)c(F)cc23)[C@@]2(N1)C(=O)Nc1ccc(Cl)cc12 [(+)-6]	ng·h/mL	26800
C[C@H]1Cc2c([nH]c3ccccc23)[C@@]2(N1)C(=O)Nc1ccc(Cl)cc12 [(+)-1]	ng·h/mL	1300
C[C@H]1Cc2c([nH]c3ccc(Cl)cc23)[C@@]2(N1)C(=O)Nc1ccc(Cl)cc12 [(+)-2]	ng·h/mL	2900
C[C@H]1Cc2c([nH]c3cc(Cl)ccc23)[C@@]2(N1)C(=O)Nc1ccc(Cl)cc12 [(+)-3]	ng·h/mL	5800
C[C@@H]1Cc2c([nH]c3cc(F)c(F)cc23)[C@]2(N1)C(=O)Nc1ccc(Cl)cc12 [(−)-6]	ng·h/mL	68200

Exercise: Query AUC0–24 for C[C@@H]1Cc2c([nH]c3cc(Cl)c(F)cc23)[C@]2(N1)C(=O)Nc1ccc(Cl)cc12 [(−)-7]
Key: 107300

Exercise: Query AUC0–24 for C[C@H]1Cc2c([nH]c3cc(F)ccc23)[C@@]2(N1)C(=O)Nc1ccc(Cl)cc12 [(+)-5]
Key: 17700

Exercise: Query AUC0–24 for C[C@H]1Cc2c([nH]c3ccc(F)cc23)[C@@]2(N1)C(=O)Nc1ccc(Cl)cc12 [(+)-4]
Key: 3900

* * *

t1/2 (oral) values for the compounds below.
experiment: In vivo PK after single p.o. and i.v. dosing in CD-1 mice; parameters: species or system female CD-1 mice; conditions: single oral dose 25 mg/kg, CD-1 mice
Write the number in h without appending the unit.

COMPOUND	t1/2 (oral), h
C[C@@H]1Cc2c([nH]c3cc(Cl)c(F)cc23)[C@]2(N1)C(=O)Nc1ccc(Cl)cc12 [(−)-7]	9.1
C[C@H]1Cc2c([nH]c3cc(Cl)ccc23)[C@@]2(N1)C(=O)Nc1ccc(Cl)cc12 [(+)-3]	6.2
C[C@H]1Cc2c([nH]c3ccc(F)cc23)[C@@]2(N1)C(=O)Nc1ccc(Cl)cc12 [(+)-4]	5.6
C[C@H]1Cc2c([nH]c3cc(F)ccc23)[C@@]2(N1)C(=O)Nc1ccc(Cl)cc12 [(+)-5]	4.0
C[C@H]1Cc2c([nH]c3ccc(Cl)cc23)[C@@]2(N1)C(=O)Nc1ccc(Cl)cc12 [(+)-2]	4.3
C[C@@H]1Cc2c([nH]c3cc(F)c(F)cc23)[C@]2(N1)C(=O)Nc1ccc(Cl)cc12 [(−)-6]	7.9
C[C@H]1Cc2c([nH]c3cc(F)c(F)cc23)[C@@]2(N1)C(=O)Nc1ccc(Cl)cc12 [(+)-6]	3.2

Exercise: Query t1/2 (oral) for C[C@H]1Cc2c([nH]c3ccccc23)[C@@]2(N1)C(=O)Nc1ccc(Cl)cc12 [(+)-1]
Key: 0.7
